Provenance of the data: PubChem BioAssay AID778

Each entry below lists one item and its recorded inhibition value.
Target: Cytochrome P450 2C19 (Homo sapiens) (UniProt P33261)
Sequence (P33261 whole entry, looked up): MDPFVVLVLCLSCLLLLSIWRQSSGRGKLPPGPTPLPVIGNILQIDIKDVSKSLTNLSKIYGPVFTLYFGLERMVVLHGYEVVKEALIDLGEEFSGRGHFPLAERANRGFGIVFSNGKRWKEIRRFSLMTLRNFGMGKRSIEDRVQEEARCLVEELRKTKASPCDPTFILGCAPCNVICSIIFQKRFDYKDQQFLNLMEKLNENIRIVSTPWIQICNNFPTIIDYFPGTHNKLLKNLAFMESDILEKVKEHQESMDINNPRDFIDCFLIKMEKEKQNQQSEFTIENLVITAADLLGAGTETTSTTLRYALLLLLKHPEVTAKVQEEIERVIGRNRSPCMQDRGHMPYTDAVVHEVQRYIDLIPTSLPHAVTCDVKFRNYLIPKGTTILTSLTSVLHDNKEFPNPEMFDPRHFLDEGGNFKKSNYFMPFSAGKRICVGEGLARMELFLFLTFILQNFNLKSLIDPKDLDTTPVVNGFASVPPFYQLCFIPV
Assay: blockers of cytochrome P450 2C19 activity – biochemical, luminescence, ADME assay, primary screen (AID 778);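 note: plate controls were negative control wells for no effect and 2.5 mM tranylcypromine positive control for full effect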
Details: CYP2C19 Supersomes, luciferin-H EGE luminescence, 30 min; at 5 µM; hits give high values
The whole screen tested about 96,000 compounds, of which about 20,000 (21%) were called active. Only a sample is shown.
Express your answer in %, writing the number without its unit.

Examples with answers:
{"COMPOUND": "CC(=O)N1CCCc2cc(S(=O)(=O)CCC(=O)N3CCN(c4ccccc4)CC3)ccc21", "TESTED TARGET": "Cytochrome P450 2C19 (Homo sapiens) (UniProt P33261)", "inhibition, %": 29.1}
{"COMPOUND": "CCN(CC)C(=O)N1CCN(C(=O)c2ccc(C)cn2)CC1", "TESTED TARGET": "Cytochrome P450 2C19 (Homo sapiens) (UniProt P33261)", "inhibition, %": 4.3}
{"COMPOUND": "Cc1cccc2cc(CN(Cc3cccs3)C(c3nnnn3C3CCCC3)C(C)C)c(=O)[nH]c12 (stereo not given)", "TESTED TARGET": "Cytochrome P450 2C19 (Homo sapiens) (UniProt P33261)", "inhibition, %": 73.4}
{"COMPOUND": "Cc1cccc2cc(CN(Cc3ccc4c(c3)OCO4)Cc3nnnn3C3CCCC3)c(=O)[nH]c12", "TESTED TARGET": "Cytochrome P450 2C19 (Homo sapiens) (UniProt P33261)", "inhibition, %": 33.8}
{"COMPOUND": "c1ccc(-c2nccc(-c3ccc(-n4cnc5ccccc54)cc3)n2)nc1", "TESTED TARGET": "Cytochrome P450 2C19 (Homo sapiens) (UniProt P33261)", "inhibition, %": 11.7}

Q: Need inhibition, item O=C(CSC1=Nc2ccccc2C2=NC(c3ccccc3)C(=O)N12)NCC1CCCO1 (stereo not given)
Ans: 29.1

Q: Find the recorded inhibition belonging to COCCn1c(=O)[nH]c2cc(C(=O)NCc3cccnc3)ccc2c1=O and report it.
Ans: 3.1

Q: Field request: inhibition | item: CCOC(=O)c1ccc(N2C(=O)CC(N(C)Cc3ccccc3)C2=O)cc1 (stereo not given)
Ans: -4

Q: Returns the measured inhibition for the input compound. Input: CCCN(c1ccc(C(C)C)cc1)S(=O)(=O)c1c(C)[nH]c(=O)[nH]c1=O
Ans: -6.2

* * *

Target: Cytochrome P450 2C19 (Homo sapiens)
Experiment: blockers of cytochrome P450 2C19 activity – biochemical, luminescence, ADME assay, primary screen (AID 778);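 note: plate controls were negative control wells for no effect and 2.5 mM tranylcypromine positive control for full effect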
Conditions: CYP2C19 Supersomes, luciferin-H EGE luminescence, 30 min; at 5 µM; hits give high values
Out of some 96,000 compounds screened, about 20,000 (21%) were called active. A selection follows.
Reported inhibition is given for each of the following compounds.
# unit: % | format: bare number

{"COMPOUND": "CCC1CCCCN1CCCNC(=O)Cn1nc(-c2ccccc2)ccc1=O (configuration not stated)", "ASSAY READOUT": "inhibition", "NUMBER": -1.3}
{"COMPOUND": "c1ccc2cc3[nH]c(CN4CCCCC4)nc3cc2c1", "ASSAY READOUT": "inhibition", "NUMBER": 82.7}
{"COMPOUND": "COc1ccc(C)cc1S(=O)(=O)NCCc1ccccc1", "ASSAY READOUT": "inhibition", "NUMBER": 54.1}

Q: Look at this compound and give its reported inhibition. O=C(NC1CCCCC1)c1ccc2c(=O)n(CC3CCCO3)c(=O)[nH]c2c1 (configuration not stated)
Ans: 0.4

Q: Which value of inhibition has been reported for Cc1ccc(S(=O)(=O)N2CCC(C(=O)OCC(=O)N3CC(=O)Nc4ccccc43)CC2)cc1 in the records?
Ans: 62.2

Q: Which value of inhibition has been reported for O=C(Nc1ccc2nc3n(c(=O)c2c1)CCCCC3)c1ccccc1Cl in the records?
Ans: 13.1

Q: Which inhibition reading was recorded for the compound Cc1nc2cc(NC(=O)CSc3nc4c(C)cccc4cc3C#N)ccc2s1 ?
Ans: 6.7

Q: State the recorded inhibition for this entry: COCCNS(=O)(=O)c1cc(Br)ccc1OC
Ans: 66.9

Q: Endpoint output: inhibition of COc1ccccc1CNC(=O)C1CCCN(S(=O)(=O)c2cccc3cccnc23)C1 (configuration not stated) . Value?
Ans: 16

Q: Entry Fc1ccc(-c2nnc(CSc3nnc(-c4ccc5c(c4)OCO5)o3)o2)cc1 : reported inhibition = ?
Ans: -7.5

Q: Can you share its inhibition? I mean this compound: O=C(CSc1ncn[nH]1)Nc1ccnc2ccccc12
Ans: 27.1

Q: Can you look up the measured inhibition of Cc1nc2cc(S(=O)(=O)C(F)(F)F)ccc2s1 for me?
Ans: 11.4
